src = the supplement of paper PMC11208160

Assay: recombinant barcode read abundance after kanamycin selection (control-corrected) (log10(CPM+1)); higher = more efficient recombination; sequences stand for … in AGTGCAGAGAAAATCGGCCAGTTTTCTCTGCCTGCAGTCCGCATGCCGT…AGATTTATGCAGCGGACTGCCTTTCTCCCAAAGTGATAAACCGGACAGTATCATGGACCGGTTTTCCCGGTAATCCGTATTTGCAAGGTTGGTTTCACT; site = the 11-nt target
recombinant barcode read abundance (log10) for assorted sequences
observation_type: recombinant barcode read abundance (log10)

sequence_entry: GTTGCCACTTGGGTTCTAACCTGTTGCCT (site GTGGCCACTAG)
recorded_value: 0.0918

sequence_entry: TTGCGGCCTTGGGTTCTAACCTGTTGCAG (site CAAACTACTTG)
recorded_value: 0.0363

sequence_entry: GGTCATACTTGGGTTCTAACCTGTTGCCT (site GGTCATCCTAG)
recorded_value: 0.0309

sequence_entry: GGCCCGCCTTGGGTTCTAACCTGTTGCCT (site GGCCCGCCTAG)
recorded_value: 0.734

sequence_entry: CGCCGTACTTGGGTTCTAACCTGTTGCCT (site CGCCGTACTAG)
recorded_value: 0.405

sequence_entry: GCTCACTCTTGGGTTCTAACCTGTTGCTT (site GTTCCCTCTAA)
recorded_value: 0.0084

sequence_entry: TCGTTTCCTTGGGTTCTAACCTGTTGCAT (site AGCCAGGCTCC)
recorded_value: 0.0113

sequence_entry: AAAACTACTTGGGTTCTAACCTGTTGCCA (site AATGCTACTTG)
recorded_value: 0.15

sequence_entry: AACAAGCCTTGGGTTCTAACCTGTTGCTG (site AACAAGCCTCA)
recorded_value: 0.896

sequence_entry: ATGAGGACTTGGGTTCTAACCTGTTGCCT (site CTGAGGACTAG)
recorded_value: 0.362

sequence_entry: TAGCCTACTTGGGTTCTAACCTGTTGCGG (site TAGCCTACTTC)
recorded_value: 0.00783

sequence_entry: AGTACTCCTTGGGTTCTAACCTGTTGCTG (site AGTACTCCTCA)
recorded_value: 0.172

* * *

Test: recombinant UMI read abundance after kanamycin selection (control-corrected) (log10(CPM+1)); higher = more efficient recombination; extreme values may be limits of the assay; sequences stand for … in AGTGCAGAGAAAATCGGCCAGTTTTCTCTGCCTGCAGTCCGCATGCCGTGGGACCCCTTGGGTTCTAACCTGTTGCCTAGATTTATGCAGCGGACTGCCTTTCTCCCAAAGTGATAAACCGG…AGGTTGGTTTCACT; site = the 11-nt donor
recombinant UMI read abundance (log10) for assorted sequences

sequence_entry: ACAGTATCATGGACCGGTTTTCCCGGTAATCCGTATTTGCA (site ACAGAAACTTG)
recombinant UMI read abundance (log10): 0
//
sequence_entry: CAATTTCCATGGACCGGTTTTCCCGGTAATCCGTATTTGCT (site CAATTGCCTAG)
recombinant UMI read abundance (log10): 0.00704
//
sequence_entry: CACCCTACATGGACCGGTTTTCCCGGTAATCCGTATTTGAG (site CGCCCTACTCT)
recombinant UMI read abundance (log10): 0.0118
//
sequence_entry: CACTCGACATGGACCGGTTTTCCCGGTAATCCGTATTTGGG (site CATTCGACTCC)
recombinant UMI read abundance (log10): 0.0164

* * *

Assay: recombinant UMI read abundance after kanamycin selection (control-corrected) (log10(CPM+1)); higher = more efficient recombination; extreme values may be limits of the assay; sequences stand for … in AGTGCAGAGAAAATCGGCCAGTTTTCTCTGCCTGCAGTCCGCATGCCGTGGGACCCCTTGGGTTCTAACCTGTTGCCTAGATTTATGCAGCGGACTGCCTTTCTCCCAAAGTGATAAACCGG…AGGTTGGTTTCACT; site = the 11-nt donor
Quick rule: recombinant UMI read abundance (log10) of at least 0.7 means yes, below that means no.

sequence_entry: ATCCAATCATGGACCGGTTTTCCCGGTAATCCGTATTTGAG (site ATCCAAACTCT)
label: no

sequence_entry: CGATAGACATGGACCGGTTTTCCCGGTAATCCGTATTTGTT (site CGATCGACTAA)
label: no

sequence_entry: TCTGTTCCATGGACCGGTTTTCCCGGTAATCCGTATTTGAG (site TCTGTTCCTCT)
label: no

sequence_entry: AGGGGTCCATGGACCGGTTTTCCCGGTAATCCGTATTTGTA (site AGGGGTCCTTA)
label: no

sequence_entry: AATGTAACATGGACCGGTTTTCCCGGTAATCCGTATTTGCT (site ACTGTAACTAG)
label: yes

* * *

Experiment: recombinant barcode read abundance after kanamycin selection (control-corrected) (log10(CPM+1)); higher = more efficient recombination; sequences stand for … in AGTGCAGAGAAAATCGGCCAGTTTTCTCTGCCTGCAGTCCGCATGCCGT…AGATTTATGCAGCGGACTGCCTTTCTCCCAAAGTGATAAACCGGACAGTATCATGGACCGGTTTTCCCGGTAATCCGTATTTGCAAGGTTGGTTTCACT; site = the 11-nt target
recombinant barcode read abundance (log10) for assorted sequences
observation_type: recombinant barcode read abundance (log10)

sequence_entry: ACAAAGCCTTGGGTTCTAACCTGTTGCCT (site ACAAAGCCTAG)
recorded_value: 0.85
//
sequence_entry: GGTACTACTTGGGTTCTAACCTGTTGCAT (site CGTACTACTGT)
recorded_value: 0.0302
//
sequence_entry: ATAGAGTCTTGGGTTCTAACCTGTTGCTT (site ATAGAGTCTAA)
recorded_value: 2.52
//
sequence_entry: AGGGACTCTTGGGTTCTAACCTGTTGCCG (site AGGGACTCTCG)
recorded_value: 1.71
//
sequence_entry: GGGCCTACTTGGGTTCTAACCTGTTGCTA (site GGGCCTACTTA)
recorded_value: 1.36
//
sequence_entry: CTAGTTACTTGGGTTCTAACCTGTTGCCT (site CTAATTACTAG)
recorded_value: 0.0479
//
sequence_entry: TATTACCCTTGGGTTCTAACCTGTTGCCT (site TATTACCCTAG)
recorded_value: 0.739
//
sequence_entry: GGCAAGGCTTGGGTTCTAACCTGTTGCCT (site ACGGGTCCTCT)
recorded_value: 0.417
//
sequence_entry: TCTTTACCTTGGGTTCTAACCTGTTGCCT (site ACTTTACCTAG)
recorded_value: 0.146
//
sequence_entry: GCTTAAACTTGGGTTCTAACCTGTTGCCT (site GCTTAAACTAG)
recorded_value: 1.04
//
sequence_entry: GTGACTGCTTGGGTTCTAACCTGTTGCGT (site GTGACTGCTAC)
recorded_value: 1.46
//
sequence_entry: TTCTCGCCTTGGGTTCTAACCTGTTGCCT (site TTCTCGCCTAG)
recorded_value: 0.576
//
sequence_entry: ACCAGTACTTGGGTTCTAACCTGTTGCCT (site ACCTGTACTAG)
recorded_value: 0.664
//
sequence_entry: ACTCTACCTTGGGTTCTAACCTGTTGCTA (site ACCCTCCCTTA)
recorded_value: 0.0533
//
sequence_entry: TCTAAGGCTTGGGTTCTAACCTGTTGCCT (site TCAAAGGCTAG)
recorded_value: 0.36
//
sequence_entry: ATAAAACCTTGGGTTCTAACCTGTTGCCT (site GTAAAACCTAG)
recorded_value: 0.114
//
sequence_entry: ACTTCAACTTGGGTTCTAACCTGTTGCCT (site ACATCAACTAG)
recorded_value: 0.0253
//
sequence_entry: CTGCAGTCTTGGGTTCTAACCTGTTGCCA (site TGCATAGCTCT)
recorded_value: 0.126

* * *

Test: recombinant UMI read abundance after kanamycin selection (control-corrected) (log10(CPM+1)); higher = more efficient recombination; extreme values may be limits of the assay; sequences stand for … in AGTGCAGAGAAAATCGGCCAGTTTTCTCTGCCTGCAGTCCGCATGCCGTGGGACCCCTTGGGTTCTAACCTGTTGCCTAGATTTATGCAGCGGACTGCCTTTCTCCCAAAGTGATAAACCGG…AGGTTGGTTTCACT; site = the 11-nt donor
Quick rule: recombinant UMI read abundance (log10) of at least 0.01 means true (1), below that means false (0).

sequence_entry: GAAGATTCATGGACCGGTTTTCCCGGTAATCCGTATTTGTT (site GAATATTCTAA)
label: false (0)
//
sequence_entry: TACTTGACATGGACCGGTTTTCCCGGTAATCCGTATTTGTT (site TACTTGACTAG)
label: false (0)
//
sequence_entry: ATAAGGCCATGGACCGGTTTTCCCGGTAATCCGTATTTGGC (site ATAAGGCCTGC)
label: true (1)
//
sequence_entry: ACACGAACATGGACCGGTTTTCCCGGTAATCCGTATTTGTC (site ACACGGACTGA)
label: true (1)
//
sequence_entry: CCCATATCATGGACCGGTTTTCCCGGTAATCCGTATTTGTC (site CCCATTTCTGA)
label: true (1)
//
sequence_entry: CAGTCAACATGGACCGGTTTTCCCGGTAATCCGTATTTGGG (site CAGTCCACTCC)
label: true (1)
//
sequence_entry: GAGCTCACATGGACCGGTTTTCCCGGTAATCCGTATTTGAG (site GAGCTCACTTT)
label: false (0)
//
sequence_entry: AGGACTACATGGACCGGTTTTCCCGGTAATCCGTATTTGAC (site AGGCCTACTGT)
label: true (1)
//
sequence_entry: AACGATCCATGGACCGGTTTTCCCGGTAATCCGTATTTGGC (site AACGATCCTGC)
label: true (1)
//
sequence_entry: AGATGGGCATGGACCGGTTTTCCCGGTAATCCGTATTTGAG (site AGATGGGCTCT)
label: true (1)
//
sequence_entry: GTATTATCATGGACCGGTTTTCCCGGTAATCCGTATTTGAC (site GTATTATCTGT)
label: true (1)
//
sequence_entry: TATACACCATGGACCGGTTTTCCCGGTAATCCGTATTTGAC (site TGTACACCTGT)
label: false (0)
//
sequence_entry: CGACCATCATGGACCGGTTTTCCCGGTAATCCGTATTTGCG (site CGATCATCTAG)
label: false (0)
//
sequence_entry: TATTTCGCATGGACCGGTTTTCCCGGTAATCCGTATTTGTG (site TATTTGGCTCA)
label: false (0)
//
sequence_entry: AAGTGCACATGGACCGGTTTTCCCGGTAATCCGTATTTGGT (site AAGTGCACTAC)
label: true (1)
//
sequence_entry: GGAGTGCCATGGACCGGTTTTCCCGGTAATCCGTATTTGGT (site GGAGTGCCTAC)
label: true (1)
//
sequence_entry: AACCCTCCATGGACCGGTTTTCCCGGTAATCCGTATTTGAT (site AACCGTCCTAT)
label: true (1)
//
sequence_entry: ACATGTACATGGACCGGTTTTCCCGGTAATCCGTATTTGTG (site ACATCTACTCA)
label: false (0)
//
sequence_entry: GTAGTATCATGGACCGGTTTTCCCGGTAATCCGTATTTGGC (site GTAGTATCTGC)
label: true (1)
//
sequence_entry: TTACAGACATGGACCGGTTTTCCCGGTAATCCGTATTTGAG (site TTACAGACTCT)
label: true (1)
//
sequence_entry: TTAGAATCATGGACCGGTTTTCCCGGTAATCCGTATTTGAC (site CTAGTATCTGT)
label: false (0)
//
sequence_entry: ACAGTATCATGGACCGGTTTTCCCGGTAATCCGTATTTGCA (site ACAGTAACTTC)
label: true (1)
//
sequence_entry: ACAGTGCCATGGACCGGTTTTCCCGGTAATCCGTATTTGAG (site ACAGTGCCTCT)
label: true (1)
//
sequence_entry: ATAGCATCATGGACCGGTTTTCCCGGTAATCCGTATTTGCA (site ATAGCATCTTG)
label: true (1)
//
sequence_entry: GCCCCGTCATGGACCGGTTTTCCCGGTAATCCGTATTTGAT (site GCCCCGTCTAT)
label: true (1)
//
sequence_entry: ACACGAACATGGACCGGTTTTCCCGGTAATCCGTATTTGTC (site ACAAGAACTGA)
label: false (0)
